FYI, the data here is from the supplement of paper PMC8728848.

Measured Target: Gal(a1-3)Gal
Method Summary: glycan array binding signal (z-score within array); higher = stronger binding
Condition: glycan notation: IUPAC condensed, linker removed
Only a selection was taken, and the strongest signals are over-represented in it overall.
Rule: glycan array binding signal (z-score) of -0.2 or more gives Y; anything lower gives N.

Q: Evaluate AT5G24760(45) (Arabidopsis thaliana), Q8LEB2 (protein) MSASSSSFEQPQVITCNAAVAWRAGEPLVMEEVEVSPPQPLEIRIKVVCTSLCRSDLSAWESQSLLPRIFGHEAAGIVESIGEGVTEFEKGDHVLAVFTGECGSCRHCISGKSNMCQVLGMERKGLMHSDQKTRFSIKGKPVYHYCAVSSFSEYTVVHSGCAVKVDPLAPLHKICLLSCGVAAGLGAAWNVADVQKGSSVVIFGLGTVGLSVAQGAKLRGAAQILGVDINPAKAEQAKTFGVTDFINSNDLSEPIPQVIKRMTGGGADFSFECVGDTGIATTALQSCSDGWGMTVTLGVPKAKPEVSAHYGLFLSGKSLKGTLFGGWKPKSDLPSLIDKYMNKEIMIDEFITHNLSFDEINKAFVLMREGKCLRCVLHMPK : glycan array binding signal (z-score) at minimum -0.2?
Ans: Y

Q: Item rCNL (Clitocybe nebularis), B2ZRS9 (protein) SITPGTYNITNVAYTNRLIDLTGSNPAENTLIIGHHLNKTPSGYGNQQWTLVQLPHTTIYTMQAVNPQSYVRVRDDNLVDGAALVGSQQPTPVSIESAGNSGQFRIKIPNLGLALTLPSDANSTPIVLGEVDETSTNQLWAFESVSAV with glycan array binding signal (z-score) of -0.2 or above?
Ans: N

Q: Entry Crocus Lectin (Crocus vernus), Q9FVA1 (protein) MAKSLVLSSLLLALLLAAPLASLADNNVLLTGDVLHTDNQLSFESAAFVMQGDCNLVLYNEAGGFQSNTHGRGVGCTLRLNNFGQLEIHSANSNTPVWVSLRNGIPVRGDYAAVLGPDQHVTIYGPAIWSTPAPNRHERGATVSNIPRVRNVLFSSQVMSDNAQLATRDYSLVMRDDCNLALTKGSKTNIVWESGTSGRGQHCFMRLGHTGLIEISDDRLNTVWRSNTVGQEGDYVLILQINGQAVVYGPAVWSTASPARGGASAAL : is its glycan array binding signal (z-score) no less than -0.2?
Ans: Y

Q: API: above_or_equal(metric=glycan array binding signal (z-score), cutoff=-0.2) for item FBG1 (Homo sapiens), Q9UK22 (protein) MDGDGDPESVGQPEEASPEEQPEEASAEEERPEDQQEEEAAAAAAYLDELPEPLLLRVLAALPAAELVQACRLVCLRWKELVDGAPLWLLKCQQEGLVPEGGVEEERDHWQQFYFLSKRRRNLLRNPCGEEDLEGWCDVEHGGDGWRVEELPGDSGVEFTHDESVKKYFASSFEWCRKAQVIDLQAEGYWEELLDTTQPAIVVKDWYSGRSDAGCLYELTVKLLSEHENVLAEFSSGQVAVPQDSDGGGWMEISHTFTDYGPGVRFVRFEHGGQDSVYWKGWFGARVTNSSVWVEP
Ans: N

Q: Given ArathEULS3 TAP (Arabidopsis thaliana) (protein) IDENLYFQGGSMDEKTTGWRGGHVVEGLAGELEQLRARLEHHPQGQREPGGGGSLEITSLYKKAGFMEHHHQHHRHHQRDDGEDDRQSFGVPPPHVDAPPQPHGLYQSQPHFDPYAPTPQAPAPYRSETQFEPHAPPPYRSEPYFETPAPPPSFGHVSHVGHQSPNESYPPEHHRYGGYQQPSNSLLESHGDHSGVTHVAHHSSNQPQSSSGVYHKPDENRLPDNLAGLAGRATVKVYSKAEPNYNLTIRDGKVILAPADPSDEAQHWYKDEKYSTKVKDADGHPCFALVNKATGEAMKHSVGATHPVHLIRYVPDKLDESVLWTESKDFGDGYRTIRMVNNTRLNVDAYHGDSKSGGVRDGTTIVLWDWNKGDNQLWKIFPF , state whether its glycan array binding signal (z-score) is at least -0.2.
Ans: Y
